Cited source: paper PMC10786891

Molecular target: T1, EsCas13d, nuclease-dead (Eubacterium siraeum, UniProt B0MS50, R295A;H300A;R849A;H854A)
T1 sequence: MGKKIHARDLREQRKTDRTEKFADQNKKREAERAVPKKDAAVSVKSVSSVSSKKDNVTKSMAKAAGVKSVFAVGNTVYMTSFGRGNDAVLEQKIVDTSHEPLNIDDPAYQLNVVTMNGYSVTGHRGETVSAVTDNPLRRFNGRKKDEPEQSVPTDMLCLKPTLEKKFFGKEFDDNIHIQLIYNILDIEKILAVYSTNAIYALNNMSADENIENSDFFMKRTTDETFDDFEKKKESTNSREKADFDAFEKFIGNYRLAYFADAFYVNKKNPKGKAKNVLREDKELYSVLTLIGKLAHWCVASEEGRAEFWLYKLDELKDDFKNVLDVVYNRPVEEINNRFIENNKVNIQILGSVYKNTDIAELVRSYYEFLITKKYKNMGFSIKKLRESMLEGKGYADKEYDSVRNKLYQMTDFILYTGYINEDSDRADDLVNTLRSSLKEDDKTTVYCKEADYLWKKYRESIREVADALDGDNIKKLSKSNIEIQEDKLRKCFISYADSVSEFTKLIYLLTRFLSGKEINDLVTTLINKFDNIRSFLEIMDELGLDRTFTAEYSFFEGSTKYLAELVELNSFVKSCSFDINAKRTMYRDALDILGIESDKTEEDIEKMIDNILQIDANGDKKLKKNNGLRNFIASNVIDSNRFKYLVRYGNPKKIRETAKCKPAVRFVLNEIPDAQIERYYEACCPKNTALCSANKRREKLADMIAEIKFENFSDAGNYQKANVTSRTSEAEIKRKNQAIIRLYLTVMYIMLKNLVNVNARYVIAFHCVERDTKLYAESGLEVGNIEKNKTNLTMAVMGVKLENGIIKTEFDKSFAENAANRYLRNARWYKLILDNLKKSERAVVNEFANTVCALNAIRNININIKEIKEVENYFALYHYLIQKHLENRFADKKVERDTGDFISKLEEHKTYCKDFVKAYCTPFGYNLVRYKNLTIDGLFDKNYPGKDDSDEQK
Assay: crRNA (strand 1, pre-loaded); Mg2+; 40 mM Tris-HCl pH 7.5, 150 mM NaCl, 6 mM MgCl2, 1 mM DTT, 0.1% Tween-20, 0.2 mg/ml BSA; 25 C; 10 min per concentration, then washed
Settings: tags: His6-TwinStrep-SUMO cleaved; N-terminal SNAP kept (SNAP-Surface 488); label: 3' end held by stalled T7 RNA polymerase
Response field label takes true (1) when Kd is strictly below 30 nM and false (0) in all other cases.

Here's what some known entries look like.
>>> classification("target 1 insU 3' of 17,insG 3' of 6 (mixed) RNA 1: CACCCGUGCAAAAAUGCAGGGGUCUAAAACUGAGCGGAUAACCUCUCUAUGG RNA 2: GGGAAUGGAUCCACAUCUACGAAUUCGUACCAUAGUAGAGGUUAUCCGGCUCACCGAGAUCGGAAGAGCACACGU")
"true (1)"
>>> classification("target 1 MT 5'PFS GUA 3'PFS UGG (mixed) RNA 1: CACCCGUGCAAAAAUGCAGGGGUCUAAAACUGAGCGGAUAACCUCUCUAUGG RNA 2: GGGAAUGGAUCCACAUCUACGAAUUCGUACCAUAGAGAGGUUAUCCGCUCAUGGAGAUCGGAAGAGCACACGU")
"false (0)"
>>> classification("target 2 MT 5'PFS UAA 3'PFS AAA (mixed) RNA 1: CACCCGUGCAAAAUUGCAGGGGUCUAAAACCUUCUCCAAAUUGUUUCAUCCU RNA 2: GGGAAUGGAUCCACAUCUACGAAUUCUAAAGGAUGAAACAAUUUGGAGAAGAAAAGAUCGGAAGAGCACACGU")
"true (1)"

query: Does the reported Kd of the following binder sit strictly below 30 nM? target 3 C1G,U7C (mixed) RNA 1: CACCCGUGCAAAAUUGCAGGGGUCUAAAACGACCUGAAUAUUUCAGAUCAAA RNA 2: GGGAAUGGAUCCACAUCUACGAAUUCGUUUUUGAUCUGAAAUAUCCAGGUGUGCAGAUCGGAAGAGCACACGU
result: false (0)

query: Does the reported Kd of the following binder sit strictly below 30 nM? target 1 G12C,C21A (mixed) RNA 1: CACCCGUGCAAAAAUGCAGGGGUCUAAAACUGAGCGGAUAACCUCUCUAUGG RNA 2: GGGAAUGGAUCCACAUCUACGAAUUCGUACAAUAGAGAGCUUAUCCGCUCACCGAGAUCGGAAGAGCACACGU
result: false (0)

query: Does the reported Kd of the following binder sit strictly below 30 nM? target 1 MT 5'PFS AAG 3'PFS AUC (mixed) RNA 1: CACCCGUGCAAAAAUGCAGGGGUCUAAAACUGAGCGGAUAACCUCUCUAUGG RNA 2: GGGAAUGGAUCCACAUCUACGAAUUCAAGCCAUAGAGAGGUUAUCCGCUCAAUCAGAUCGGAAGAGCACACGU
result: true (1)

query: Does the reported Kd of the following binder sit strictly below 30 nM? target 1 U3A,U19G (mixed) RNA 1: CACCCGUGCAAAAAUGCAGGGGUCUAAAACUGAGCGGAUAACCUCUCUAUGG RNA 2: GGGAAUGGAUCCACAUCUACGAAUUCGUACCAGAGAGAGGUUAUCCGCACACCGAGAUCGGAAGAGCACACGU
result: false (0)
